details: 298.15 K; 101 kPa; Liquid
measure: mass density (kg/m3)

[
  {
    "compound": "CCO",
    "val": 785.46
  },
  {
    "compound": "CCOC(C)=O [ethyl acetate]",
    "val": 894.43
  },
  {
    "compound": "COC(C)=O [methyl ethanoate]",
    "val": 926.98
  },
  {
    "compound": "CO",
    "val": 787.2
  }
]

----------
settings: 303.15 K; 101 kPa; Liquid

[
  {
    "compound": "CCO",
    "unit": "kg/m3",
    "mass density": 781.15
  },
  {
    "compound": "CCOC(C)=O [ethyl acetate]",
    "unit": "kg/m3",
    "mass density": 888.3
  },
  {
    "compound": "CO",
    "unit": "kg/m3",
    "mass density": 782.48
  },
  {
    "compound": "COC(C)=O [methyl ethanoate]",
    "unit": "kg/m3",
    "mass density": 920.34
  }
]
